# Test system: Enterococcus sp.
# Assay explanation: in vitro antibacterial evaluation, MIC by broth dilution
# Assay type: cell-based
# Applied conditions: strain GC 2243; broth dilution, 18 hours at 35° C.
Numbered stars: 1 amine (or outer) side, 2 acyl side, 3 side chain; on linkers, the order of the positions; unused ones are H or OH. Square brackets hold non-standard residues; d marks the D form. Peptide text beside a SMILES is read from it. ξ: configuration not given here. X6 = N=C1NCC(CC(N[*:1])C(=O)[*:2])N1C1OC(CO)C(O)C(O)C1O; Tyr(3-NO2) = N[CH](Cc1ccc(O)c([N+](=O)[O-])c1)C(=O)O; X7 = N=C1NCC(CC(N[*:1])C(=O)[*:2])N1; ξPhe(βξ-Me) = CC(c1ccccc1)C(N)C(=O)O
Listing: MIC Enterococcus faecium (GC 2243) of selected compounds

| Compound | Result |
| --- | --- |
| COc1cc(OC)cc(C2OC3C(OC4C(CO)OC(Oc5ccc(CC6NC(=O)C(C(C)c7ccccc7)NC(=O)CNC(=O)C(CO)NC(=O)C(C(O)C7CNC(=N)N7C7OC(CO)C(O)C(O)C7O)NC(=O)C(C(O)C7CNC(=N)N7)NC6=O)cc5)C(O)C4O)OC(CO)C(O)C3O2)c1 (stereo not drawn) [Example 150a] | >64 µg/mL |
| CC(c1ccccc1)C1NC(=O)CNC(=O)C(CO)NC(=O)C(CC2CNC(=N)N2C2OC(CO)C(O)C(O)C2O)NC(=O)C(CC2CNC(=N)N2)NC(=O)C(Cc2ccc(O)c([N+](=O)[O-])c2)NC1=O (stereo not drawn) [Example 10] (cyclo(G[ξPhe(βξ-Me)][Tyr(3-NO2)][X7][X6]S); configuration not given here) | >64 µg/mL |

Under Enterococcus sp.: MIC Enterococcus faecium (GC 2243) value of COc1cccc(C2OC3C(OC4C(CO)OC(Oc5ccc(CC6NC(=O)C(C(C)c7ccccc7)NC(=O)CNC(=O)C(CO)NC(=O)C(C(O)C7CNC(=N)N7C7OC(CO)C(O)C(O)C7O)NC(=O)C(C(O)C7CNC(=N)N7)NC6=O)cc5)C(O)C4O)OC(CO)C(O)C3O2)c1 (single isomer, unassigned) [Example 137a] ?
>64 µg/mL

Try CC(C)C(=O)Nc1cc(CC2NC(=O)C(C(C)c3ccccc3)NC(=O)CNC(=O)C(CO)NC(=O)C(C(O)C3CNC(=N)N3C3OC(CO)C(O)C(O)C3O)NC(=O)C(C(O)C3CNC(=N)N3)NC2=O)ccc1O (stereo not drawn) next.
>128 µg/mL

Try CC(c1ccccc1)C1NC(=O)CNC(=O)C(CO)NC(=O)C(C(O)C2CNC(=N)N2C2OC(CO)C(O)C(O)C2O)NC(=O)C(C(O)C2CNC(=N)N2)NC(=O)C(Cc2ccc(O)c(NC=O)c2)NC1=O (stereo not drawn) next.
>128 µg/mL

Try CC(C1CCCCC1)C1NC(=O)CNC(=O)C(CO)NC(=O)C(C(O)C2CNC(=N)N2C2OC(CO)C(O)C(O)C2O)NC(=O)C(C(O)C2CNC(=N)N2)NC(=O)C(C[C@H]2CC[C@@H](O)CC2)NC1=O (stereo partly drawn) next.
>128 µg/mL

The reported numbers originate from patent US6914045B2.
